assay_target: human IDO1 (Homo sapiens)
Construct: expressed in transfected cells
measurement_description: HEK293 cell-based indoleamine 2,3-dioxygenase (IDO) assay
applied_conditions: human IDO1/HEK293 cells; potency class; read-out: Patent Potency HEK IC50 A < 10 nM, B > 10 nM, C > 100 nM
pIC50: −log10 of the molar value.
assay_endpoint: pIC50

Data request: Please list pIC50 recorded for the compound CC[C@@H](NC(=O)c1ccc(OC)nc1)[C@H]1CC[C@@H](c2ccnc3ccc(F)cc32)CC1 (single isomer, unassigned) [Example 10b]
Data returned: > 8.00

* * *

assay_target: indoleamine 2,3-dioxygenase (IDO) (Homo sapiens)
Sequence (P14902 whole entry): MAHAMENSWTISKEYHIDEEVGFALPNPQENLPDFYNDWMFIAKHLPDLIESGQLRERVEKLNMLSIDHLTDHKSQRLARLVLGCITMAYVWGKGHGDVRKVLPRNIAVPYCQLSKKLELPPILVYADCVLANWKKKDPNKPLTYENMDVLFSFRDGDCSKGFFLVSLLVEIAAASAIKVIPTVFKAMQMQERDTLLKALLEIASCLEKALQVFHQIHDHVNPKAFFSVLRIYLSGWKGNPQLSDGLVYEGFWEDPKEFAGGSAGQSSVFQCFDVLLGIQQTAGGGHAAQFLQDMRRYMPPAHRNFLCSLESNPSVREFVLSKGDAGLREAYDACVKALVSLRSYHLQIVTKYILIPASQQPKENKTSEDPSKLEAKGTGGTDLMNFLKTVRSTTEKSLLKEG
measurement_description: HeLa cell-based indoleamine 2,3-dioxygenase (IDO) assay (kynurenine production, IFNγ-stimulated)
applied_conditions: HeLa cells; potency class; read-out: Patent Potency Hela IC50 A < 10 nM, B > 10 nM, C > 100 nM
Reported values of IC50 for individual entries

Consider the reported IC50 for these molecules:
| molecule | assay_target | IC50 |
| --- | --- | --- |
| COCCOCC(NC(=O)c1ccc(OC)nc1)C1CCC(c2ccnc3ccc(F)cc23)CC1 (single isomer, unassigned) [Example 15a] | indoleamine 2,3-dioxygenase (IDO) (Homo sapiens) | < 10 nM |
| CCC(NC(=O)c1ccc(OC)nc1)C1CCC(c2cccc(C)n2)CC1 (single isomer, unassigned) [Example 46b] | indoleamine 2,3-dioxygenase (IDO) (Homo sapiens) | > 100 nM |
| CCC(NC(=O)c1ccc(OC)nc1)C1CCC(c2ccnc(F)c2C)CC1 (single isomer, unassigned) [Example 68-1] | indoleamine 2,3-dioxygenase (IDO) (Homo sapiens) | > 10 nM |

Data request: Given CCC(NC(=O)c1ccc(OC)nc1)[C@H]1CC[C@H](c2ccnc(F)c2C)CC1 (mixture of isomers) , respond with its IC50.
Data returned: > 100 nM

Data request: Please give the documented IC50 of CC[C@H](NC(=O)c1cnc(C)nc1)[C@H]1CC[C@H](c2ccnc3c(F)cccc32)CC1 (single isomer, unassigned) [Example 61c]
Data returned: > 100 nM

* * *

assay_target: human IDO1 (Homo sapiens, UniProt P14902)
Construct: expressed in transfected cells
measurement_description: HEK293 cell-based indoleamine 2,3-dioxygenase (IDO) assay
applied_conditions: human IDO1/HEK293 cells, 20 hours incubation; read-out: IDO1 HEK Human IC50
pIC50: −log10 of the molar value.
// Not satisfied strictly below 8 in pIC50; Satisfied otherwise

Check out these entries, answers already filled in.
| compound | class_label |
| --- | --- |
| C[C@@H](NC(=O)c1cncnc1)[C@H]1CC[C@@H](c2ccnc3ccc(F)cc32)CC1 [Example 36] | Not satisfied |
| CC[C@@H](NC(=O)c1ccc(OC)nc1)[C@H]1CC[C@@H](c2ccnc3ccc(F)cc32)CC1 (single isomer, unassigned) [Example 10d] | Not satisfied |

// next entry
Data request: Threshold query (pIC50 >= 8) on Cc1ncc(C(=O)N[C@H](C)[C@H]2CC[C@@H](c3ccnc4ccc(F)cc43)CC2)cn1 [Example 9]
Data returned: Not satisfied

* * *

# IC50 per entry
assay_target: UniProt:P14902
measurement_description: HeLa cell-based indoleamine 2,3-dioxygenase (IDO) assay (kynurenine production, IFNγ-stimulated)
applied_conditions: HeLa cells; potency class; read-out: Patent Potency Hela IC50 A < 10 nM, B > 10 nM, C > 100 nM

| compound | IC50 |
| --- | --- |
| CCC(NC(=O)c1cnc(OC)nc1)C1CCC(c2ccnc3c(F)cc(F)cc23)CC1 (single isomer, unassigned) [Example 58d] | < 10 nM |
| CCC(NC(=O)c1ccc(OC)nc1)C1CCC(c2ccnc(OC)c2C)CC1 (single isomer, unassigned) [Example 28b] | < 10 nM |
| CCC(NC(=O)c1ccc(OC)nc1)C1CCC(c2cccc(C(F)(F)F)n2)CC1 (single isomer, unassigned) [Example 47b] | > 100 nM |

Data request: Look up and state reported IC50 for CCC(NC(=O)c1ccc(OC)nc1)C1CCC(c2ccnc3c(F)cc(F)cc23)CC1 (single isomer, unassigned) [Example 57b]
Data returned: < 10 nM

Data request: # return recorded IC50 for input CCC(NC(=O)c1ccc(OC)nc1)C1CCC(c2cccc(OC(F)F)n2)CC1 (single isomer, unassigned) [Example 48b]
Data returned: > 100 nM

Data request: Given CCC(NC(=O)c1ccc(OC)nc1)C1CCC(c2cccc(C(F)(F)F)n2)CC1 (single isomer, unassigned) [Example 47c] , respond with its IC50.
Data returned: > 100 nM

Data request: Answer with the recorded IC50 of COCC(NC(=O)c1ccc(OC)nc1)C1CCC(c2ccnc3ccc(F)cc23)CC1 (stereo not shown) [Example 14a] only.
Data returned: < 10 nM
